Entries and their GI50
Tested on: ACHN
procedure.summary: NCI tumour cell line growth inhibition, 48 h
The source made the active and inactive calls. No stated cut-off is given here; in the data, active = GI50 up to about 1.1 µM and inactive = higher.

[in] Look up GI50 for this molecule: C1CCN2CC3CONC3C2C1 (centres undefined)
[out] > 100 µM (inactive)

[in] Look up GI50 for this molecule: COC12CC(O)=C(C(C)=O)C(=O)C1(C)c1c(OC(C)=O)c(C)c(O)c(C(C)=O)c1O2 (centres undefined)
[out] 12.3 µM (inactive)

[in] Look up GI50 for this molecule: COc1ccc(C)cc1C1CCC(=O)O1 (centres undefined)
[out] > 100 µM (inactive)

###

System: UACC-257
procedure.summary: NCI tumour cell line growth inhibition, 48 h
Activity calls are given as the source filed them. No stated cut-off is given here; in the data, active = GI50 up to about 1.1 µM and inactive = higher.
readout.type: GI50

Would you please look over these solved cases?
CCCCNC(=O)Nc1c(C(N)=O)c2n(c1C(=O)OCC)CCCCC2 :: > 100 µM (inactive)
NCc1cccc(O)c1O :: > 100 µM (inactive)
Cc1nc(-c2nc([N+](=O)[O-])c([N+](=O)[O-])[nH]2)cs1 :: > 100 µM (inactive)
OCCCN(CCc1ccc(Cl)c(Cl)c1)CCN1CCCC1 :: 19.3 µM (inactive)
CCOC(=O)N1CCc2cc(OC)c(OC)cc2/C1=C\c1ccc(OC)c(OC)c1 :: 23.6 µM (inactive)

[in] Look up GI50 for this compound: CCOC1=NC(C(F)(F)F)(C(F)(F)F)N=C(/N=C(/N)N(C)C(C(C)C)P(=O)(OC(C)C)OC(C)C)O1 (centres undefined)
[out] 70.3 µM (inactive)
